Each entry below carries its reported viability at 48 h, 10 µM.
Assay: Cytotoxicity against human HeLa cells assessed as cell viability at 10 uM after 48 hrs by resazurin assay relative to control
Format: cell-based
Details: read-out: Activity
Please respond with the number in % and leave the unit unwritten.

Some solved cases for reference:
Exam item: Could you share which viability at 48 h, 10 µM value was measured for O=C(C1CSc2c(C3CC3)c(Cc3cccc4ccccc34)cc(=O)n21)N1CCCCC1 (stereo unspecified) ?
Marked response: 86

Exam item: Could you share which viability at 48 h, 10 µM value was measured for O=C(Nc1nccs1)C1CSc2c(C3CC3)c(Cc3cccc4ccccc34)cc(=O)n21 (stereo unspecified) ?
Marked response: 96

Exam item: Could you share which viability at 48 h, 10 µM value was measured for O=C(Nc1ccc(F)cc1)C1CSc2c(C3CC3)c(Cc3cccc4ccccc34)cc(=O)n21 (stereo unspecified) ?
Marked response: 98

Next:
Exam item: Could you share which viability at 48 h, 10 µM value was measured for Cc1cccc(NC(=O)C2CSc3c(C4CC4)c(Cc4cccc5ccccc45)c(N)c(=O)n32)c1 (stereo unspecified) ?
Marked response: 98

Exam item: Could you share which viability at 48 h, 10 µM value was measured for Cc1cccc(Cc2cc(=O)n3c(c2C2CC2)SCC3C(=O)Nc2ccccc2)c1 (stereo unspecified) ?
Marked response: 87

Exam item: Could you share which viability at 48 h, 10 µM value was measured for O=C(Nc1cccc(Cl)c1)C1CSc2c(C3CC3)c(Cc3cccc4ccccc34)cc(=O)n21 (stereo unspecified) ?
Marked response: 100

====

Each entry below carries its reported Activity.
Tested on: Chlamydia trachomatis
Assay: Antimicrobial activity against Chlamydia trachomatis serovar LGV-L2 infected in human HeLa cells assessed as concentration require to reduce relative inclusion forming units by 95% after 48 hrs
Assay type: functional

Exam item: Any idea what Activity came out for O=C(C1CSc2c(C3CC3)c(Cc3cccc4ccccc34)cc(=O)n21)N1CCOCC1 (stereo unspecified) on Chlamydia trachomatis?
Marked response: >10 µM

Exam item: Any idea what Activity came out for CON(C)C(=O)C1CSc2c(C3CC3)c(Cc3cccc4ccccc34)cc(=O)n21 (stereo unspecified) on Chlamydia trachomatis?
Marked response: >10 µM

Exam item: Any idea what Activity came out for NC(=O)c1ccc(NC(=O)C2CSc3c(C4CC4)c(Cc4cccc5ccccc45)c(N)c(=O)n32)cc1 (stereo unspecified) on Chlamydia trachomatis?
Marked response: >10 µM

Exam item: Any idea what Activity came out for CN1CCN(C(=O)C2CSc3c(C4CC4)c(Cc4cccc5ccccc45)cc(=O)n32)CC1 (stereo unspecified) on Chlamydia trachomatis?
Marked response: >10 µM

Exam item: Any idea what Activity came out for O=C(C1CSc2c(C3CC3)c(Cc3cccc4ccccc34)cc(=O)n21)N1CCCCC1 (stereo unspecified) on Chlamydia trachomatis?
Marked response: >10 µM

Moving on to the next compound.
Exam item: Any idea what Activity came out for O=C(O)c1c(Cc2cccc3ccccc23)c(C2CC2)c2n(c1=O)C(C(=O)Nc1ccccc1)CS2 (stereo unspecified) on Chlamydia trachomatis?
Marked response: > 10 µM
